Values compiled from patent US20210246166A1.

# target.entity: T1, Recombinant human MASP1 enzyme (fragment corresponding to amino acids 297-699, C-terminal His Tag) (human, UniProt P48740 297-699)
# T1 sequence: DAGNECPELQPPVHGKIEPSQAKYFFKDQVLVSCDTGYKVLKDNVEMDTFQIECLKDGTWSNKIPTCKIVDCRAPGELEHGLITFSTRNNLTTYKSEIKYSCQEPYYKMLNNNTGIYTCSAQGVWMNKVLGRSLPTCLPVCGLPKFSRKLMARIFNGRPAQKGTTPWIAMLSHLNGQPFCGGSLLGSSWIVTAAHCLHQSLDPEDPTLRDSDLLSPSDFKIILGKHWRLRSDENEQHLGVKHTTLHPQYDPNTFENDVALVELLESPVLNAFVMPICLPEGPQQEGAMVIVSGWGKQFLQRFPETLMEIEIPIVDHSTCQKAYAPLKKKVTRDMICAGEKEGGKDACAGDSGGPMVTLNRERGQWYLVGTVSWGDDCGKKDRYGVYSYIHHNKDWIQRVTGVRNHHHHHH
# protocol: cell-based or functional assay
Bridge positions count the residues as written; N and C are the ends. Square brackets hold non-standard residues; d marks the D form. Ends that are not written are not given here. Oic = O=C(O)[C@@H]1C[C@@H]2CCCC[C@@H]2N1; tBuAla = CC(C)(C)C[C@H](N)C(=O)O; Pen = CC(C)(S)[C@H](N)C(=O)O; 3Amb = NCc1cccc(C(=O)O)c1; Sar = CNCC(=O)O
property.label: human MASP1 IC50 (nM)
Answers are plain numbers, in nM.

binder="ICSRSLP[Oic]I[Pen]IPD-NH2 (disulfide 2-10; N-terminus assumed; SMILES CC[C@H](C)[C@H](N)C(=O)N[C@H]1CSSC(C)(C)[C@@H](C(=O)N[C@H](C(=O)N2CCC[C@H]2C(=O)N[C@@H](CC(=O)O)C(N)=O)[C@@H](C)CC)NC(=O)[C@H]([C@@H](C)CC)NC(=O)[C@@H]2C[C@@H]3CCCC[C@@H]3N2C(=O)[C@@H]2CCCN2C(=O)[C@H](CC(C)C)NC(=O)[C@H](CO)NC(=O)[C@H](CCCNC(=N)N)NC(=O)[C@H](CO)NC1=O) [IC+SRSLP-(Oic)-I-(Pen)+IPD-NH2]" value_measured=17

Would you mind listing human MASP1 IC50 for each of the following binders?
1. [3Amb]ICSRS[tBuAla]PPI[Pen]IP-NH2 (disulfide 3-11; N-terminus assumed; SMILES CC[C@H](C)[C@H](NC(=O)c1cccc(CN)c1)C(=O)N[C@H]1CSSC(C)(C)[C@@H](C(=O)N[C@H](C(=O)N2CCC[C@H]2C(N)=O)[C@@H](C)CC)NC(=O)[C@H]([C@@H](C)CC)NC(=O)[C@@H]2CCCN2C(=O)[C@@H]2CCCN2C(=O)[C@H](CC(C)(C)C)NC(=O)[C@H](CO)NC(=O)[C@H](CCCNC(=N)N)NC(=O)[C@H](CO)NC1=O) [(3-(Aminomethyl)benzoic acid)-IC+SRS-((tBu)A)-PPI-(Pen)+IP-NH2]
2. [Sar]ICSRSLP[Oic]I[Pen]I[5‑Azaspiro(2.4)heptane‑1‑carboxylic acid]-OH (disulfide 3-11) [((N-Me)G)-IC+SRSLP-(Oic)-I-(Pen)+I-((5-Azaspiro[2.4]heptane-1-carboxylic acid)-OH]

Result ::
1: 5.4; 2: 5.1
